# Test system: MKNK1
# test_settings: concentration: 1 μM,replicates: in singlicate; n = 1;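 further: KINOMEscan kinase panel screen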
readout_label: %Inh (%)
The reply should contain only the number, in %.

// known answers, use as guide
>>> readout_number("Cc1ccc(-n2nc(C(C)(C)C)cc2NC(=O)Nc2ccc(OCCN3CCOCC3)c3ccccc23)cc1")
14
>>> readout_number("Cc1ccc2c(-c3ccncc3)c(-c3ccc(F)cc3)nn2c1.Cl")
23
>>> readout_number("Nc1nc(Nc2ccccc2)cc(-c2ccc3c(N)n[nH]c3c2)n1")
9

Moving on to the next compound.
In: Would you mind telling me what %Inh value was observed for Cl.Cl.Nc1nc(-c2ccc3c(N)n[nH]c3c2)cc(N2CCCC(NC(=O)c3ccccc3)C2)n1 (stereo not shown) ?
Out: 12

====

# Tested on: TIE1
# test_settings: concentration: 1 μM,replicates: in singlicate; n = 1
Classify as follows. Reported %Inh greater than or equal to 3%: Yes. Reported %Inh below: No.

Solved entries (count: 5):
>>> group_label("NC(=O)c1cc(-c2ccccc2)cc2c(C3CCNCC3)c[nH]c12 [GSK301362]")
"Yes"
>>> group_label("Cl.Cl.NC[C@H](Cc1ccc(C(F)(F)F)cc1)NC(=O)c1cc(Br)c(-c2ccnc3[nH]ccc23)s1 [GSK1487252]")
"Yes"
>>> group_label("Cc1cc2cn[nH]c2cc1-c1cccc2c(N)c(C(N)=O)nnc12")
"No"
>>> group_label("Cc1occc1-c1nc(N)c(OC[C@@H](N)Cc2c[nH]c3ccccc23)cc1-c1cc2c(C)n[nH]c2cn1 [GSK1660450]")
"Yes"
>>> group_label("C[C@H]1Oc2cc(cnc2N)-c2c(nn(C)c2C#N)CN(C)C(=O)c2ccc(F)cc21")
"No"

In: Given the entry Cl.Oc1cc(-c2nc(-c3ccccc3)[nH]c2-c2ccncc2)ccc1Cl [SB-386023] , answer whether its %Inh meets or surpasses 3%.
Out: No

In: Does the reported %Inh for C[C@@H]1CCN(C(=O)CC#N)C[C@@H]1N(C)c1ncnc2[nH]ccc12 fall at or above the 3% mark?
Out: Yes

In: Determine whether measured %Inh meets or exceeds 3% for Cc1n[nH]c2ccc(-c3cc(OC[C@@H](N)Cc4ccccc4)cnc3-c3ccoc3)cc12.O=C(O)C(F)(F)F.O=C(O)C(F)(F)F [GSK507358]
Out: No

====

# System: PRKG2
# test_settings: concentration: 1 μM,replicates: in singlicate; n = 1
Listed here: items and their measured %Inh.
Number in %, nothing else.

In: What value of %Inh has been recorded for this entry: CCn1c(-c2nonc2N)nc2c(C#CC(C)(C)O)nc(OCCN)cc21.Cl.Cl [GSK902056]
Out: 97

In: Fill blank: measured %Inh of the compound Nc1nc(Nc2ccccc2)cc(-c2ccc3c(N)n[nH]c3c2)n1 [GSK2225749] is ____.
Out: 45

In: I am curious: what %Inh value has been reported for O=C(NCCNc1ccnc(NCc2ccc(F)cc2)n1)c1cc2ccccc2s1 [GSK1379944] ?
Out: 0

====

# Tested on: EPHA3
# test_settings: concentration: 1 μM,replicates: in singlicate; n = 1
readout_label: %Inh (%)
I only need the number, in %, no unit after it.

Consider the following illustrative entries.
>>> readout_number("C=CC(=O)Nc1cc2c(Nc3ccc(F)c(Cl)c3)ncnc2cc1OCCCN1CCOCC1")
13
>>> readout_number("CC(C)Nc1cc(-c2ccc3c(N)n[nH]c3c2)nc(N)n1")
0
>>> readout_number("CCn1c(-c2nonc2N)nc2c(C#CC(C)(C)O)nc(OCCN)cc21.Cl.Cl")
21
>>> readout_number("Cl.Oc1cc(-c2nc(-c3ccccc3)[nH]c2-c2ccncc2)ccc1Cl")
5
>>> readout_number("Cc1ccc2c(-c3ccncc3)c(-c3ccc(F)cc3)nn2c1.Cl")
13

In: Recorded %Inh of CCN(CC)CCCCNc1ncc2cc(-c3c(Cl)cccc3Cl)c(NC(=O)NC(C)(C)C)nc2n1 , please.
Out: 99.4

In: Item under review: O=C(NCCNc1ccnc(NCc2ccc(F)cc2)n1)c1cc2ccccc2s1 . Reported %Inh?
Out: 0

In: Quick check: %Inh of Cc1n[nH]c2ccc(-c3cc(OC[C@@H](N)Cc4ccccc4)cnc3-c3ccoc3)cc12.O=C(O)C(F)(F)F.O=C(O)C(F)(F)F ?
Out: 43

====

%Inh values, listed per item
# Test system: AXL
# test_settings: concentration: 1 μM,replicates: in singlicate; n = 1
Provide only the numeric value, understood in %.

These recorded examples may help you get a feel for the data.
>>> readout_number("C[C@@H](Oc1cc(-c2cnn(C3CCNCC3)c2)cnc1N)c1c(Cl)ccc(F)c1Cl")
98.1
>>> readout_number("Cc1ccc(-n2nc(C(C)(C)C)cc2NC(=O)Nc2ccc(OCCN3CCOCC3)c3ccccc23)cc1")
12
>>> readout_number("Cl.Cl.NC[C@H](Cc1ccc(C(F)(F)F)cc1)NC(=O)c1cc(Br)c(-c2ccnc3[nH]ccc23)s1")
69

In: Consider the molecule C=CC(=O)Nc1cc2c(Nc3ccc(F)c(Cl)c3)ncnc2cc1OCCCN1CCOCC1 and give its measured %Inh.
Out: 53

====

# Test system: RPS6KA5(Kin.Dom.1-N-terminal)
# test_settings: concentration: 1 μM,replicates: in singlicate; n = 1
# Lookup of reported %Inh keyed by entry
Report as a plain number; the unit % is understood.

>>> readout_number("Cc1ccc(-n2nc(C(C)(C)C)cc2NC(=O)Nc2ccc(OCCN3CCOCC3)c3ccccc23)cc1")
2
>>> readout_number("Cl.Oc1cc(-c2nc(-c3ccccc3)[nH]c2-c2ccncc2)ccc1Cl")
1
>>> readout_number("Cc1ccc2c(-c3ccncc3)c(-c3ccc(F)cc3)nn2c1.Cl")
0

In: Data request, read-out %Inh, for Cc1occc1-c1nc(N)c(OC[C@@H](N)Cc2c[nH]c3ccccc23)cc1-c1cc2c(C)n[nH]c2cn1
Out: 72

In: Value lookup for %Inh; key = Cl.Cl.Nc1nc(-c2ccc3c(N)n[nH]c3c2)cc(N2CCCC(NC(=O)c3ccccc3)C2)n1 (stereo not drawn)
Out: 0

In: For the compound CNC(=O)c1ccccc1Sc1ccc2c(/C=C/c3ccccn3)n[nH]c2c1 , what %Inh is on record?
Out: 0

In: Record request: %Inh value, item O=C(NCCNc1ccnc(NCc2ccc(F)cc2)n1)c1cc2ccccc2s1
Out: 24

In: Quick one: %Inh of CC(C)N1C(=O)Cc2cc(Nc3ncc(C(F)(F)F)c(NCc4cccc(S(C)(=O)=O)c4)n3)ccc21 ?
Out: 0

In: Entry Nc1nc(Nc2ccccc2)cc(-c2ccc3c(N)n[nH]c3c2)n1 : reported %Inh = ?
Out: 15

In: Reported %Inh for Cl.Cl.NC[C@H](Cc1ccc(C(F)(F)F)cc1)NC(=O)c1cc(Br)c(-c2ccnc3[nH]ccc23)s1 : what is it?
Out: 72

In: Param item = COc1ccc(C[C@@H](CN)NC(=O)c2cc(Br)c(-c3ccnc4[nH]ccc34)s2)cc1.Cl.Cl ; retrieve measured %Inh.
Out: 87

In: Which %Inh is reported for this compound? C[C@@H]1CCN(C(=O)CC#N)C[C@@H]1N(C)c1ncnc2[nH]ccc12
Out: 0

In: # %Inh lookup, item Cc1n[nH]c2ccc(-c3cc(OC[C@@H](N)Cc4ccccc4)cnc3-c3ccoc3)cc12.O=C(O)C(F)(F)F.O=C(O)C(F)(F)F
Out: 42

In: Query: %Inh; subject: O=C(NCCCN1CCOC1=O)c1cnc(NCc2cc(Cl)ccc2Cl)nc1NC1CCCC1
Out: 15

In: I would be grateful if you could share the reported %Inh for CCN(CC)CCCCNc1ncc2cc(-c3c(Cl)cccc3Cl)c(NC(=O)NC(C)(C)C)nc2n1 .
Out: 8

====

The following compounds are listed with their measured %Inh values.
# System: HIPK4
# test_settings: concentration: 1 μM,replicates: in singlicate; n = 1
Record the result as number plus unit.

>>> result("CN(C)CCOc1ccc(-c2cc(-c3c[nH]nc3-c3ccccn3)ccn2)cc1")
"100%"
>>> result("CCn1c(-c2nonc2N)nc2c(C#CC(C)(C)O)nc(OCCN)cc21.Cl.Cl")
"0%"
>>> result("NC(=O)c1cc(-c2ccccc2)cc2c(C3CCNCC3)c[nH]c12")
"0%"

In: Item Cc1ccc(-n2nc(C(C)(C)C)cc2NC(=O)Nc2ccc(OCCN3CCOCC3)c3ccccc23)cc1 has what recorded %Inh?
Out: 2%

====

Catalogue of molecules with associated %Inh
# Tested on: SYK
# test_settings: concentration: 1 μM,replicates: in singlicate; n = 1
Give the value, in units of %, as a plain number.

Below, each entry is followed by its recorded %Inh result.
>>> readout_number("C[C@@H](Oc1cc(-c2cnn(C3CCNCC3)c2)cnc1N)c1c(Cl)ccc(F)c1Cl")
8
>>> readout_number("COc1ccc(C[C@@H](CN)NC(=O)c2cc(Br)c(-c3ccnc4[nH]ccc34)s2)cc1.Cl.Cl")
39
>>> readout_number("CCn1c(-c2nonc2N)nc2c(C#CC(C)(C)O)nc(OCCN)cc21.Cl.Cl")
0
>>> readout_number("Cc1n[nH]c2ccc(-c3cc(OC[C@@H](N)Cc4ccccc4)cnc3-c3ccoc3)cc12.O=C(O)C(F)(F)F.O=C(O)C(F)(F)F")
0
>>> readout_number("CCN(CC)CCCCNc1ncc2cc(-c3c(Cl)cccc3Cl)c(NC(=O)NC(C)(C)C)nc2n1")
11

Could you now consider this next molecule?
In: Recorded %Inh for Nc1nc(Nc2ccccc2)cc(-c2ccc3c(N)n[nH]c3c2)n1 , please?
Out: 0
